# Measured on: thrombin (Equus caballus)
# Construct: mature thrombin (light and heavy chain) cut from prothrombin; clotting of human fibrinogen
# Assay overview: Thrombin time
# Format: biochemical, horse thrombin, human plasma
# Run conditions: 50 μM active substance in human plasma, 37° C.
Endpoint: TT50 (thrombin time as a difference to the control) (s)
# output: bare number, implied unit s

[ask] Endpoint output: TT50 (thrombin time as a difference to the control) of Cc1cc(NS(=O)(=O)C2CCCCC2)cc(OCCNc2ccnnc2)c1 . Value?
[reply] 90

[ask] Endpoint output: TT50 (thrombin time as a difference to the control) of Cc1cc(OCCNc2ccnnc2)cc(OS(=O)(=O)c2cccc(C(N)=S)c2)c1 . Value?
[reply] 71

[ask] Endpoint output: TT50 (thrombin time as a difference to the control) of CCOC(=O)COc1cccc(S(=O)(=O)Oc2cc(C)cc(OCCNc3ccnnc3)c2)c1 . Value?
[reply] 49

[ask] Endpoint output: TT50 (thrombin time as a difference to the control) of Cc1cc(OCCNc2ccnnc2)cc(OS(=O)(=O)c2cccnc2)c1 . Value?
[reply] 194

[ask] Endpoint output: TT50 (thrombin time as a difference to the control) of Cc1cc(OCCNc2ccnnc2)cc(OS(=O)(=O)c2ccc(C#N)cc2)c1 . Value?
[reply] 81

[ask] Endpoint output: TT50 (thrombin time as a difference to the control) of Cc1cc(NS(=O)(=O)c2ccccc2)cc(OCCNc2ccnnc2)c1 . Value?
[reply] 126

[ask] Endpoint output: TT50 (thrombin time as a difference to the control) of Cc1cc(OCCNc2ccnnc2)cc(OS(=O)(=O)c2cccc(C#N)c2)c1 . Value?
[reply] 128

* * *

The following are reported pKi results, target or system human α thrombin (Homo sapiens).
Friendly reminder that pKi comes from taking -log10 of the concentration in mol/L.

[ask] Endpoint output: pKi of Cc1cc(OCCNc2ccnnc2)cc(OS(=O)(=O)c2cccnc2)c1 [Example 4] . Value?
[reply] 7.22

[ask] Endpoint output: pKi of Cc1cc(NS(=O)(=O)c2ccccc2)cc(OCCNc2ccnnc2)c1 [Example 1] . Value?
[reply] 7.15

[ask] Endpoint output: pKi of Cc1cc(OCCNc2ccnnc2)cc(OS(=O)(=O)c2cccc(C#N)c2)c1 [Example 9] . Value?
[reply] 6.85

[ask] Endpoint output: pKi of Cc1cc(OCCNc2ccnnc2)cc(OS(=O)(=O)c2cccc(C(N)=S)c2)c1 [Example 10] . Value?
[reply] 6.77

[ask] Endpoint output: pKi of Cc1cc(OCCNc2ccnnc2)cc(OS(=O)(=O)c2ccc(C#N)cc2)c1 [Example 11] . Value?
[reply] 6.70

[ask] Endpoint output: pKi of CCOC(=O)COc1cccc(S(=O)(=O)Oc2cc(C)cc(OCCNc3ccnnc3)c2)c1 [Example 13] . Value?
[reply] 7.05

[ask] Endpoint output: pKi of Cc1cc(NS(=O)(=O)C2CCCCC2)cc(OCCNc2ccnnc2)c1 [Example 22] . Value?
[reply] 6.46

* * *

# Measured on: thrombin (Equus caballus, UniProt F7BFJ1)
# Construct: mature thrombin (light and heavy chain) cut from prothrombin; clotting of human fibrinogen
# Assay overview: Thrombin time
# Format: biochemical, horse thrombin, human plasma
# Run conditions: 5 μM active substance in human plasma, 37° C.
Endpoint: TT5 (thrombin time as a difference to the control)

[ask] Value wanted: TT5 (thrombin time as a difference to the control) (thrombin (Equus caballus, UniProt F7BFJ1)) of entry Cc1cc(OCCNc2ccnnc2)cc(OS(=O)(=O)c2cccnc2)c1
[reply] 38 s

[ask] Value wanted: TT5 (thrombin time as a difference to the control) (thrombin (Equus caballus, UniProt F7BFJ1)) of entry Cc1cc(NS(=O)(=O)c2ccccc2)cc(OCCNc2ccnnc2)c1
[reply] 23 s

[ask] Value wanted: TT5 (thrombin time as a difference to the control) (thrombin (Equus caballus, UniProt F7BFJ1)) of entry CCOC(=O)COc1cccc(S(=O)(=O)Oc2cc(C)cc(OCCNc3ccnnc3)c2)c1
[reply] 0 s

[ask] Value wanted: TT5 (thrombin time as a difference to the control) (thrombin (Equus caballus, UniProt F7BFJ1)) of entry Cc1cc(OCCNc2ccnnc2)cc(OS(=O)(=O)c2cccc(C#N)c2)c1
[reply] 31 s

[ask] Value wanted: TT5 (thrombin time as a difference to the control) (thrombin (Equus caballus, UniProt F7BFJ1)) of entry Cc1cc(NS(=O)(=O)C2CCCCC2)cc(OCCNc2ccnnc2)c1
[reply] 11 s

[ask] Value wanted: TT5 (thrombin time as a difference to the control) (thrombin (Equus caballus, UniProt F7BFJ1)) of entry Cc1cc(OCCNc2ccnnc2)cc(OS(=O)(=O)c2ccc(C#N)cc2)c1
[reply] 18 s

[ask] Value wanted: TT5 (thrombin time as a difference to the control) (thrombin (Equus caballus, UniProt F7BFJ1)) of entry Cc1cc(OCCNc2ccnnc2)cc(OS(=O)(=O)c2cccc(C(N)=S)c2)c1
[reply] 13 s
